Biological target: DDR2 (human) (UniProt Q16832)
Sequence (Q16832 whole entry, looked up): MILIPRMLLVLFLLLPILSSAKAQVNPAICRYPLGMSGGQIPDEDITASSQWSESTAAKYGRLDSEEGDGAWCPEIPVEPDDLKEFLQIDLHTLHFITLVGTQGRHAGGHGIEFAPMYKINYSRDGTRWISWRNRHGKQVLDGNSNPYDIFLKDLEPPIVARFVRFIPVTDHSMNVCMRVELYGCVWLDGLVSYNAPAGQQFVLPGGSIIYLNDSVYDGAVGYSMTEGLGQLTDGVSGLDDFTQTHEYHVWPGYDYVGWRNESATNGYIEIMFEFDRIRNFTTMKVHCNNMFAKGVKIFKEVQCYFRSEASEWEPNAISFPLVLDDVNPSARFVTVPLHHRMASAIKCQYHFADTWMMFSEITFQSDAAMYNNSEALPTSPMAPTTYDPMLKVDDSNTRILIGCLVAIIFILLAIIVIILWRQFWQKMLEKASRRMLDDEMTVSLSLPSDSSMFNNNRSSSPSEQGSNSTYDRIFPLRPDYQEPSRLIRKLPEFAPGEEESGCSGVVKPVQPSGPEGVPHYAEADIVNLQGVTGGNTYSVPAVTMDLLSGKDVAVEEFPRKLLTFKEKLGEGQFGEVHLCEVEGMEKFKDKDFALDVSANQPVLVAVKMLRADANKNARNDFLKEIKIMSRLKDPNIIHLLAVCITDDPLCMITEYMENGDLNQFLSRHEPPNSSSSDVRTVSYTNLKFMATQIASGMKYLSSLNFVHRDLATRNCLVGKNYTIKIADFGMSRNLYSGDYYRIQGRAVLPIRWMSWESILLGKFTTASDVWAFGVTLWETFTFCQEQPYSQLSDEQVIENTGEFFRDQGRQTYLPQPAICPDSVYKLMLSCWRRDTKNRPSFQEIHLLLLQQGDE
Assay: KINOMEscan competition binding
Settings: compound 10.0 µM
Some molecules, each annotated with its measured kinase still bound, per cent of control.
quantity: kinase still bound, per cent of control (%)

1) COc1cc2ncnc(-n3nc(-c4ccccn4)nc3N)c2cc1OC; 22
2) CNC(=O)c1cc(Oc2ccc(NC(=O)Nc3ccc(Cl)c(C(F)(F)F)c3)cc2)ccn1; 14
3) COc1cc(N2CCN(C)CC2)ccc1Nc1ncc2c(n1)N(C)c1ccccc1C(=O)N2C; 100
4) O=C1NC(=O)/C(=C/c2ccc3nccc(-c4ccncc4)c3c2)S1; 63
5) O=C(Nc1cccc(Nc2ncc(Br)c(NCCc3cnc[nH]3)n2)c1)N1CCCC1; 65
6) CN(C)C/C=C/C(=O)Nc1ccc(C(=O)Nc2cccc(Nc3nccc(-c4cccnc4)n3)c2)cc1; 64
7) O=c1cc(N2CCOCC2)oc2c(-c3cccc4c3sc3ccccc34)cccc12; 100
8) CNC(=O)c1ccc(Nc2cc(Nc3ccccc3S(=O)(=O)C(C)C)c3cc[nH]c3n2)nc1; 100
9) CCN(CC)CCCCNc1ncc2cc(-c3cc(OC)cc(OC)c3)c(NC(=O)NC(C)(C)C)nc2n1; 100
